Molecular target: 5-HT7 (Homo sapiens (Human))
Sequence (P34969 whole entry, species assumed): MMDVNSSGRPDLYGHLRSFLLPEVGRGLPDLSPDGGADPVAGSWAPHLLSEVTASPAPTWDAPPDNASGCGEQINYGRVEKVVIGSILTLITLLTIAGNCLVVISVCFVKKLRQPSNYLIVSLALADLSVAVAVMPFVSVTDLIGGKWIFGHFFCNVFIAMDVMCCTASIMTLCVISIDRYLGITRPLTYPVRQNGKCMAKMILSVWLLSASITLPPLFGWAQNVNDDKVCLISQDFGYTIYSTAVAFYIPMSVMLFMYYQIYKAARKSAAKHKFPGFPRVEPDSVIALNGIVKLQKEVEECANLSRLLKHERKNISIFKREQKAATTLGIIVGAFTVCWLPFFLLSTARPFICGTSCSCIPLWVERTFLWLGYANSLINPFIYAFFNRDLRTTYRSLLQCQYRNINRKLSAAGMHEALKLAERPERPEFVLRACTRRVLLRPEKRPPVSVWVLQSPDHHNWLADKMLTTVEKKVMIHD
Counter-ions that a name gives are not always drawn.
EXPERIMENTAL ENDPOINT: Ki

1) Cc1ccc2c(c1)Oc1sc(Cl)cc1C(N1CCN(CC(C)(C)C(=O)O)CC1)=N2 [Example 3, dihydrochloride]
> 2.06 µM

###

Target: Adrenergic alpha2B (Homo sapiens (Human), UniProt P18089)
Sequence (P18089 whole entry): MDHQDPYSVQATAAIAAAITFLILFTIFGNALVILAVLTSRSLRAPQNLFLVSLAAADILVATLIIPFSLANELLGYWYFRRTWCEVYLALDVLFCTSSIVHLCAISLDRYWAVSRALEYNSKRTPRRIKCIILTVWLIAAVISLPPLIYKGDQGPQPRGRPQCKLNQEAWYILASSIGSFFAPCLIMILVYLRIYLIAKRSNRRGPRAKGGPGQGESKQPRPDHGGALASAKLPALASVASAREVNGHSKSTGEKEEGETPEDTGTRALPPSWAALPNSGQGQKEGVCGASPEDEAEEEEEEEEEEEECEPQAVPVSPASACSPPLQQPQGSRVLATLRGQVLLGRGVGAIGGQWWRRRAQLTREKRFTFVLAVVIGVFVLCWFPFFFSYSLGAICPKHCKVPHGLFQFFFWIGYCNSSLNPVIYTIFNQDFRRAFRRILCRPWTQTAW
Where a name gives a salt, the structure may show the parent alone.
EXPERIMENTAL ENDPOINT: Ki

1) Cc1ccc2c(c1)Oc1sc(Cl)cc1C(N1CCN(CC(C)(C)C(=O)O)CC1)=N2 [Example 3, dihydrochloride]
> 5.76 µM

###

Target: Dopamine D1 (Homo sapiens (Human))
Sequence (P21728 whole entry): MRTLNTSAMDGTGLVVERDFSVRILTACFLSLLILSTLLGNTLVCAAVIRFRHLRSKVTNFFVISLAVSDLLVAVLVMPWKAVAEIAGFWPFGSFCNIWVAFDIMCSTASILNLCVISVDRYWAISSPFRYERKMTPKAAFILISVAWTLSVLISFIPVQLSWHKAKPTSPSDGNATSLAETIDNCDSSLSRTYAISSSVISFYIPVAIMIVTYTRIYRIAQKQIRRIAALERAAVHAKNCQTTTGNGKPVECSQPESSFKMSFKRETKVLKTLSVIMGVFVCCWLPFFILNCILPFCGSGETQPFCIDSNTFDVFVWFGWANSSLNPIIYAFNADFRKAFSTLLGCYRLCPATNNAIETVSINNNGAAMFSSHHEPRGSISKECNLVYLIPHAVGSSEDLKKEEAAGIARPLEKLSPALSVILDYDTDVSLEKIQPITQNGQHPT
Experiment: Dopamine D1 binding
pKi: −log10 of the molar value. Structures can show the parent of a compound that is named as a salt.
EXPERIMENTAL ENDPOINT: pKi

1. Cc1ccc2c(c1)Oc1sc(Cl)cc1C(N1CCN(CC(C)(C)C(=O)O)CC1)=N2 [Example 3, dihydrochloride]
6.23

###

Biological target: recombinant 5-HT2C receptor (human) (Homo sapiens (Human))
Sequence (P28335 whole entry, looked up): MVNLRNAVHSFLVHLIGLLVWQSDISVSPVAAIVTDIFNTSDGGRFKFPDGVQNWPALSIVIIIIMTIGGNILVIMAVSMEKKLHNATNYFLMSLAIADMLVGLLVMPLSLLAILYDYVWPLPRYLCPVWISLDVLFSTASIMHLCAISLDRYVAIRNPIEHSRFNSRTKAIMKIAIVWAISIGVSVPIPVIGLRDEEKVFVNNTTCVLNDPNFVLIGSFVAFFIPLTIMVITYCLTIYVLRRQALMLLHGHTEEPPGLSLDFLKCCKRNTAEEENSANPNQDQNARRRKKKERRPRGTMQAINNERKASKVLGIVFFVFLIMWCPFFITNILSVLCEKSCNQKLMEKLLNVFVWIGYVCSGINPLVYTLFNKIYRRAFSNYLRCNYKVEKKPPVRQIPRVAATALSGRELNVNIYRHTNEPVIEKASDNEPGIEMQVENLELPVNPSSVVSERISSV
Test: 5-HT2C competition binding assay ([125I]-DOI, SPA)
Details: dihydrochloride
Where a name gives a salt, the structure may show the parent alone.
EXPERIMENTAL ENDPOINT: Ki (µM)

1) Cc1ccc2c(c1)Oc1sc(Cl)cc1C(N1CCN(CC(C)(C)C(=O)O)CC1)=N2 [Example 3, dihydrochloride]
0.328

###

Target: human recombinant H1 receptor (Homo sapiens (Human), UniProt P35367)
Sequence (P35367 whole entry): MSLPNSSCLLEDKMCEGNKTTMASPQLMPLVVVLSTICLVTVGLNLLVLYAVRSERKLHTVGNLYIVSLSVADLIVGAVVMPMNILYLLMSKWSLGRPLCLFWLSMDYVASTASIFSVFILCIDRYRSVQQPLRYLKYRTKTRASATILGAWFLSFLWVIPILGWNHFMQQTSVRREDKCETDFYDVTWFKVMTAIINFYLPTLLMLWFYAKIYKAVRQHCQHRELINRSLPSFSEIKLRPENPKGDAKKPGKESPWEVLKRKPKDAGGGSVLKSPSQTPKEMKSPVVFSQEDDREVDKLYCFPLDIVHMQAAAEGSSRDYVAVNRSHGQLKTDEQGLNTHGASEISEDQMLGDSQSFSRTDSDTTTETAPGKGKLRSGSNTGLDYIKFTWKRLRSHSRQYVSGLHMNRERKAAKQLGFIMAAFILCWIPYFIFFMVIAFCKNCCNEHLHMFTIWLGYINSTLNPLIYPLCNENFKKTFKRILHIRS
Assay: H1 competition binding assay ([3H]-Pyrilamine, SPA)
EXPERIMENTAL ENDPOINT: Ki (nM)

1. Cc1ccc2c(c1)Oc1sc(Cl)cc1C(N1CCN(CC(C)(C)C(=O)O)CC1)=N2 [Example 1]
20.6

###

Target: Adrenergic alpha2A (Homo sapiens (Human))
Sequence (P08913 whole entry): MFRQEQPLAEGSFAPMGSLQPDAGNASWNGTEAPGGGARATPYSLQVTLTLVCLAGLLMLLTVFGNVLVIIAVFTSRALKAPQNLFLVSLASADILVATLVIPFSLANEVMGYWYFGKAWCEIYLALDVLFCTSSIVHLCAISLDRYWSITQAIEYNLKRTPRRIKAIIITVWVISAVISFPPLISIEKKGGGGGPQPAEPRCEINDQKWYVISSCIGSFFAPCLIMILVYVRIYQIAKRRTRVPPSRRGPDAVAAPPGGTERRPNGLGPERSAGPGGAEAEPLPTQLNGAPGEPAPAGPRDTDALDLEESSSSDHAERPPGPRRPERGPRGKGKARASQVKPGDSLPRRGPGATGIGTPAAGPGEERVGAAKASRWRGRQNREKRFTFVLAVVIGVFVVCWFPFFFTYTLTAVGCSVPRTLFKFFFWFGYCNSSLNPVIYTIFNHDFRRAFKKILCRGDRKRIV
pKi: −log10 of the molar value. Counter-ions that a name gives are not always drawn.
EXPERIMENTAL ENDPOINT: pKi

1. Cc1ccc2c(c1)Oc1sc(Cl)cc1C(N1CCN(CC(C)(C)C(=O)O)CC1)=N2 [Example 3, dihydrochloride]
< 5.05

Reference source for all entries: patent US9481688B2
